- Target Or System: T1, GST-fused Tandem-Tudor domain (TTD) of human UHRF1, residues 126-280, wild type (human, UniProt Q96T88 126-280)
- T1 construct: Tandem Tudor domain (TTD) of human UHRF1, UniProt Q96T88, residues 126-280; borders as in Rothbart et al., 2012; also called hUHRF1-TTD; UHRF1-TTD; source: E. coli, purified (Glutathione Agarose 4B); not shown: GST, N-terminal, kept
- T1 sequence (looked up): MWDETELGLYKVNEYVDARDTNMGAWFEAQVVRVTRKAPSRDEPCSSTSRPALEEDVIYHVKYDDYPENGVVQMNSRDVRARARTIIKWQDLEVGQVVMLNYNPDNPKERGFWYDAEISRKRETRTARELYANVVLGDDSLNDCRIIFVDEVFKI
- Assay Details: fluorescence polarisation; fluorescence anisotropy titration; 100 nM FITC-labeled peptide in the cuvette, protein added stepwise; 23°C; 100 mM KCl, 20 mM HEPES pH 7.5, 10% v/v glycerol
- Test Context: both partners purified
No end group written: not given here. Me3 = trimethyl (trimethyl-lysine)
Result Type: Kd (nM)
Give your result in nM as a bare value.

Query string: What measured Kd goes with ARTK(Me)QTARK(Me3)STGGKAPRKQ (peptide, UniProt P68431 2-20, looked up, also: FITC-labeled (position not given here), histone H3 N-terminal tail, residues 1-19; also called H3K4me1-K9me3; H3 K4me1-K9me3) [FITC-labeled H3(1-19) peptide with K4me1 and K9me3] ?
Result string: 240
